Target: T1, GIP receptor (UniProt P48546 22-466)
T1 sequence (looked up): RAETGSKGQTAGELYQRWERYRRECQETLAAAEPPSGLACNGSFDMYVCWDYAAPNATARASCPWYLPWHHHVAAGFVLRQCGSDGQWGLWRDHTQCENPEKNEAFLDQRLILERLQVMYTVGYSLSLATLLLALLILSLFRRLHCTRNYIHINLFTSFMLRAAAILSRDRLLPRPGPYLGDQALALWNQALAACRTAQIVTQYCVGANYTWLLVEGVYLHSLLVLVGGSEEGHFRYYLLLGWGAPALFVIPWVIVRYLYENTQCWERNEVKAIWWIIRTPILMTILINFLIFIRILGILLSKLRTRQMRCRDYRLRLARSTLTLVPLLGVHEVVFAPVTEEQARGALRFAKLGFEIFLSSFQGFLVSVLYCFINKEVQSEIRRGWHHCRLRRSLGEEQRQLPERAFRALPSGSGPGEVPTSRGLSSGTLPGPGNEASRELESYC
Test: cell-based or functional assay
Where no end group is shown, it is not given here.
measured.property: relative activity (%)
Express your answer in %, writing the number without its unit.

# example entries with known answers
In [3]: df
Out[3]:
                                     binder  measured_property  units_text  observed_value
0  YSQGTFTSDYSKYLDEIHQKEFVNWLLAQ-NH2 [mt-118]  relative activity           %            6.39
1  YSQGTFTSDYSKYLDEIHQKDFVNWLLAGGPSSGAPPPS-NH2 [mt-116]  relative activity           %            7.62
2  YXEGTFISDYSIAMDKIHQQDFVNWLLAQKGKKNWLKHNITQ (C-terminal amide) [mt-100]  relative activity           %             306
3  YSQGTFTSDYSKYLDEIHQKDFVNWLLAQ-NH2 [mt-109]  relative activity           %            6.99

Tell me measured relative activity for YAPGTFISDYSIAMDKIHQQDFVNWLLAQKGKKNWLKHNITQ-NH2 [mt-101] please.
0.06

Tell me relative activity reported for YAEGTFISDYSIAMDKIHQQDFVNWLLAQKGKKNWLKHNITQ-NH2 [mt-99]
100
